System: Escherichia coli TOP10
assay.text: shrunken log2 fold change of peptide-encoding DNA abundance (4.5 h post-induction vs induction); higher = less antimicrobial activity (less host growth inhibition)
setup.conditions: time post-induction: 4.5 h; library: site-saturation at positions 5, 18, 19, 20
Reported shrunken log2 fold change values follow for various sequences
Answer with a number only.

Example entries and their recorded answers appear below.
RRIRRRPPRLPRPRPRPPYQPRP :: 0.245
RRIRWRPPRLPRPRPRPGLLPRP :: 0.403
RRIRHRPPRLPRPRPRPSSSPRP :: -0.258
RRIRQRPPRLPRPRPRPLHIPRP :: -0.423
RRIRRRPPRLPRPRPRPWCTPRP :: -0.0123
RRIRWRPPRLPRPRPRPCNKPRP :: -0.738

Task: Dear colleague, I am looking for the recorded shrunken log2 fold change of the following sequence: RRIRSRPPRLPRPRPRPRHAPRP
Output: 0.39

Task: Try this sequence too: RRIRWRPPRLPRPRPRPNDHPRP
Output: -0.0566

---

Test system: Escherichia coli TOP10
assay.text: shrunken log2 fold change of peptide-encoding DNA abundance (4.5 h post-induction vs induction); higher = less antimicrobial activity (less host growth inhibition)
setup.conditions: time post-induction: 4.5 h; library: site-saturation at positions 5, 18, 19, 20
Returns satisfied if the recorded shrunken log2 fold change is greater than or equal to -0.06, and not satisfied otherwise.

RRIRCRPPRLPRPRPRPEPEPRP :: satisfied
RRIRSRPPRLPRPRPRPIDLPRP :: not satisfied

Task: Evaluate RRIRNRPPRLPRPRPRPNEMPRP : shrunken log2 fold change at minimum -0.06?
Output: satisfied

Task: Try this sequence too: RRIRNRPPRLPRPRPRPQLSPRP
Output: not satisfied

Task: Try this sequence too: RRIRERPPRLPRPRPRPPVNPRP
Output: satisfied

---

Reported shrunken log2 fold change values follow for various sequences
Tested on: Escherichia coli TOP10
assay.text: shrunken log2 fold change of peptide-encoding DNA abundance (4.5 h post-induction vs induction); higher = less antimicrobial activity (less host growth inhibition)
setup.conditions: time post-induction: 4.5 h; library: site-saturation at positions 5, 18, 19, 20
Answer with a number only.

Example entries and their recorded answers appear below.
RRIRMRPPRLPRPRPRPRNAPRP :: 2.06
RRIRHRPPRLPRPRPRPQEMPRP :: -0.0755
RRIRCRPPRLPRPRPRPCAPPRP :: -0.00137

Now look at this entry.
Task: Dear colleague, I am looking for the recorded shrunken log2 fold change of the following sequence: RRIRCRPPRLPRPRPRPAQQPRP
Output: 0.342

---

System: Escherichia coli TOP10
assay.text: shrunken log2 fold change of peptide-encoding DNA abundance (4.5 h post-induction vs induction); higher = less antimicrobial activity (less host growth inhibition)
setup.conditions: time post-induction: 4.5 h; library: site-saturation at positions 5, 18, 19, 20
measurement.kind: shrunken log2 fold change

RRIRNRPPRLPRPRPRPCAWPRP :: -0.147

Now look at this entry.
Task: Dear colleague, I am looking for the recorded shrunken log2 fold change of the following sequence: RRIRLRPPRLPRPRPRPWGDPRP
Output: -0.176

---

Tested on: Escherichia coli TOP10
assay.text: shrunken log2 fold change of peptide-encoding DNA abundance (4.5 h post-induction vs induction); higher = less antimicrobial activity (less host growth inhibition)
setup.conditions: time post-induction: 4.5 h; library: site-saturation at positions 5, 18, 19, 20
Reported shrunken log2 fold change values follow for various sequences
Answer with a number only.

Example entries and their recorded answers appear below.
RRIRWRPPRLPRPRPRPLWDPRP :: 0.235
RRIRLRPPRLPRPRPRPVKRPRP :: 0.0647
RRIRPRPPRLPRPRPRPQVYPRP :: 0.962
RRIRVRPPRLPRPRPRPKTWPRP :: 0.063
RRIRTRPPRLPRPRPRPSDCPRP :: 0.131
RRIRKRPPRLPRPRPRPTIYPRP :: -0.0381
RRIRRRPPRLPRPRPRPICYPRP :: -0.0102
RRIRYRPPRLPRPRPRPCYGPRP :: -0.211

Task: # query: shrunken log2 fold change | item RRIRFRPPRLPRPRPRPEGNPRP | system: Escherichia coli TOP10;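 further: peptides expressed intracellularly from a pBAD plasmid library in pooled LB shake-flask culture, induced with 0.3% L-arabinose, DNA abundance read by NGS, three biological replicates, DESeq2 with apeglm shrinkage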
Output: -0.0429

Task: Try this sequence too: RRIRGRPPRLPRPRPRPIYLPRP
Output: 0.0531

Task: Try this sequence too: RRIRVRPPRLPRPRPRPSTIPRP
Output: -0.136

Task: Try this sequence too: RRIRKRPPRLPRPRPRPKSAPRP
Output: 0.656

Task: Try this sequence too: RRIRMRPPRLPRPRPRPQSHPRP
Output: 0.083

Task: Try this sequence too: RRIRPRPPRLPRPRPRPYYCPRP
Output: -0.718

Task: Try this sequence too: RRIRLRPPRLPRPRPRPNITPRP
Output: -0.327
